# Test system: MCF7
# Measurement Description: Photocytotoxicity against human MCF7 cells assessed as inhibition of cell growth incubated for 24 hrs by MTT assay
# Type: functional, cell-based
# Study Conditions: MCF7, 24 h
Readout Name: IC50 (nM)
All answers are understood in nM, so give the number only.

Compound	Tested Target	IC50, nM
CC1=C(I)C(C)=[N+]2C1=C(c1ccc(OCc3cn(CCOCCOCCOCCOCCNC(=O)CCCCC4SCC5NC(=O)NC54)nn3)cc1)c1c(C)c(I)c(C)n1[B-]2(F)F (configuration not stated)	MCF7	54.1

Would you kindly look at the next entry?
// query Consider the compound CC1=C(I)C(C)=[N+]2C1=C(c1ccc(OCc3cn(CCOCCOCCOCCNC(=O)CCCCC4SCC5NC(=O)NC54)nn3)cc1)c1c(C)c(I)c(C)n1[B-]2(F)F (configuration not stated) and give its recorded IC50.
// result 21.8

* * *

# IC50 at 24 h listing for each entry below
# Measurement Description: Photocytotoxicity against human MCF-10A cells assessed as inhibition of cell growth incubated for 24 hrs by MTT assay
# Type: toxicity, cell-based
All answers are understood in nM, so give the number only.

Compound	Unit Abbrev	IC50 at 24 h
CC1=C(I)C(C)=[N+]2C1=C(c1ccc(OCc3cn(CCOCCOCCOCCNC(=O)CCCCC4SCC5NC(=O)NC54)nn3)cc1)c1c(C)c(I)c(C)n1[B-]2(F)F (configuration not stated)	nM	196

// query Consider the compound CC1=C(I)C(C)=[N+]2C1=C(c1ccc(OCc3cn(CCOCCOCCOCCOCCNC(=O)CCCCC4SCC5NC(=O)NC54)nn3)cc1)c1c(C)c(I)c(C)n1[B-]2(F)F (configuration not stated) and give its recorded IC50 at 24 h.
// result 177

* * *

# Test system: MDA-MB-231
# Measurement Description: Photocytotoxicity against human MDA-MB-231 cells assessed as inhibition of cell growth incubated for 24 hrs by MTT assay
# Assay type: functional, cell-based
# Study Conditions: MDA-MB-231, 24 h
Readout Name: pIC50
The scale used: pIC50 is minus the common logarithm of the concentration in molar units.

// query Consider the molecule "C#CCOc1ccc(C2=C3C(C)=C(I)C(C)=[N+]3[B-](F)(F)n3c(C)c(I)c(C)c32)cc1" and give its recorded pIC50.
// result 7.60

// query Consider the molecule CC1=C(I)C(C)=[N+]2C1=C(c1ccc(OCc3cn(CCOCCOCCOCCNC(=O)CCCCC4SCC5NC(=O)NC54)nn3)cc1)c1c(C)c(I)c(C)n1[B-]2(F)F (stereo not drawn) and give its recorded pIC50.
// result 7.73

// query Consider the molecule CC1=C(I)C(C)=[N+]2C1=C(c1ccc(OCc3cn(CCOCCOCCOCCOCCNC(=O)CCCCC4SCC5NC(=O)NC54)nn3)cc1)c1c(C)c(I)c(C)n1[B-]2(F)F (stereo not drawn) and give its recorded pIC50.
// result 7.28
